System: M19-MEL
assay_summary: NCI tumour cell line growth inhibition, 48 h
Active and inactive are the calls of the source. No stated cut-off is given here; in the data, active = GI50 up to about 1.1 µM and inactive = higher.
value_kind: GI50

compound=O=C1C=C(Nc2ccccc2C(=O)CC(=O)C(=O)Nc2cccc([N+](=O)[O-])c2)c2ccccc2C1=O reported="4.45 µM (inactive)"
compound="CC1CC2OC(=O)CC2C[C@@H]1O[Si](C)(C)C(C)(C)C (stereo not given in full)" reported="42.8 µM (inactive)"
compound="CC(C)C(Sc1nc(-c2ccccc2)c(-c2ccccc2)[nH]1)c1n[nH]c(=S)n1-c1ccccc1 (stereo not given)" reported="17.5 µM (inactive)"
compound=Cc1ccc(C(=O)O/N=C2/CCC/C2=C\c2ccccc2)cc1 reported="> 100 µM (inactive)"
compound=COc1ccc(/C=C2\Cc3ccccc3C2=O)cc1OC reported="> 100 µM (inactive)"

Give one value of GI50 per listed compound.
1. C[C@@H]1C[C@H]2[C@@H]3CCC4=CC(=O)C=C[C@]4(C)[C@@]3(F)[C@@H](O)C[C@]2(C)[C@@]1(O)C(=O)CO
2. Cc1ccc(S(=O)(=O)NC(=O)C2S(=O)(=O)OCCOS2(=O)=O)cc1
3. NC(=O)COc1ccccc1
4. Cc1c2ccccc2c(CO)c2cc(F)c3ccccc3c12
5. COc1cc(/C=C/c2ccc(OC(C)=O)cc2)cc(OC)c1OC

Out:
1. > 100 µM (inactive)
2. > 100 µM (inactive)
3. > 100 µM (inactive)
4. 35.8 µM (inactive)
5. 39.9 µM (inactive)
